pKi: −log10 of the molar value.
# collection of pKi values tested on UniProtKB O60674
# Sequence (O60674 whole entry): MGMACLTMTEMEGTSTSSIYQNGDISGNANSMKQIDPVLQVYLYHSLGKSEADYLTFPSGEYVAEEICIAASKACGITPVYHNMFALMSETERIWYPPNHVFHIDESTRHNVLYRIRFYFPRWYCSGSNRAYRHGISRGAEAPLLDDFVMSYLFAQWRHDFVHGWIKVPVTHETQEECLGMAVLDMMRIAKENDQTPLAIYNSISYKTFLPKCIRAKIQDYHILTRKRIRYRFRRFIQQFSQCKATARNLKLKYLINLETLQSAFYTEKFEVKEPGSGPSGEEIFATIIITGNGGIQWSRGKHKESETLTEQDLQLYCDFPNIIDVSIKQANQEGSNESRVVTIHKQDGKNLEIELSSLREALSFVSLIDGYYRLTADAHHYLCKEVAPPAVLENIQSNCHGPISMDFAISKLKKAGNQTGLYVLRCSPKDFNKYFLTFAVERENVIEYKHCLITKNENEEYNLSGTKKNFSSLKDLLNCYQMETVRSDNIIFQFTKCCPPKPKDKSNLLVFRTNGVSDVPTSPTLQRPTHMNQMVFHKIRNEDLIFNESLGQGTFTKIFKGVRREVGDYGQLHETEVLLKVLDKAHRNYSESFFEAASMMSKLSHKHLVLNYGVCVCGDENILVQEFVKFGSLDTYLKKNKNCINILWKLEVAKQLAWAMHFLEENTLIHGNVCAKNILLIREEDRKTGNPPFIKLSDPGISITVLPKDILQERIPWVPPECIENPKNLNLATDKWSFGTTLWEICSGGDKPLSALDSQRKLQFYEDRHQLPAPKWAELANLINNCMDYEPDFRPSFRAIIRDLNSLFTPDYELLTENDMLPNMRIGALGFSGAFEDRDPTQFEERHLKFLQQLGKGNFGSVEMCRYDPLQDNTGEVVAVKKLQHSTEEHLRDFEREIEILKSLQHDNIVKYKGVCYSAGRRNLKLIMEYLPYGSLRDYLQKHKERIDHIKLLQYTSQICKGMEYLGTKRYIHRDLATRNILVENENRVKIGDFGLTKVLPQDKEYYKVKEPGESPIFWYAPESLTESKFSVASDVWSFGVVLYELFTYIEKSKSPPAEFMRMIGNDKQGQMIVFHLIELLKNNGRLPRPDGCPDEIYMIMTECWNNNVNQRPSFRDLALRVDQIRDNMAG

molecule | tested.system | pKi
C[C@H](Nc1cc(-c2c(N)nn3cccnc23)nc(OCCC2CC2)n1)c1ccc(F)cc1 [Compound 157] | UniProtKB O60674 | 7.00 to 8.00
Nc1nn2cccnc2c1-c1cc(NCc2ccc(C(F)(F)F)cc2F)ncn1 [Compound 46] | UniProtKB O60674 | > 8.00
C[C@H](Nc1cc(-c2c(N)nn3cccnc23)nc(OCCN2CCOCC2)n1)c1ccc(F)cc1 [Compound 109] | UniProtKB O60674 | > 8.00
C[C@H](Nc1cc(-c2c(N)nn3cccnc23)nc(OCC2CCCO2)n1)c1ccc(F)cc1F (stereo partly shown) [Compound 139] | UniProtKB O60674 | > 8.00
C[C@H](Nc1cc(-c2cnn3cccnc23)nc(OC2CCN(C)CC2)n1)c1ccc(F)cc1F [Compound 200] | UniProtKB O60674 | > 8.00
COC(C)(C)CCOc1nc(N[C@@H](C)c2ccc(F)cc2F)cc(-c2c(N)nn3cccnc23)n1 [Compound 138] | UniProtKB O60674 | > 8.00
OCC[C@H](Nc1cc(-c2cnn3cccnc23)ncn1)c1ccccc1 [Compound 115] | UniProtKB O60674 | 7.00 to 8.00
CC(C)[C@H](Nc1cc(-c2cnn3cccnc23)ncn1)c1ccc(F)cc1F [Compound 121] | UniProtKB O60674 | > 8.00
CCC(C#N)Oc1nc(N[C@@H](C)c2ccc(F)cc2F)cc(-c2cnn3cccnc23)n1 (stereo partly shown) [Compound 192] | UniProtKB O60674 | > 8.00
C[C@H](Nc1cc(-c2cnn3cccnc23)nc(N)n1)c1ccc(F)cc1F [Compound 147] | UniProtKB O60674 | > 8.00
C[C@H](Nc1cc(-c2cnn3cccnc23)nc(NC(=O)CN2CCOCC2)n1)c1ccc(F)cc1F [Compound 186] | UniProtKB O60674 | > 8.00
C[C@H](Nc1cc(-c2cnn3cccnc23)nc(OCCNC(C)(C)C)n1)c1ccc(F)cc1F [Compound 206] | UniProtKB O60674 | > 8.00
C[C@H](Nc1cc(-c2c(N)nn3cc(F)cnc23)ncn1)c1ccc(F)cc1F [Compound 105] | UniProtKB O60674 | > 8.00
Nc1nn2cccnc2c1-c1cc(NC2(c3ccc(F)cc3)CC2)ncn1 [Compound 90] | UniProtKB O60674 | > 8.00
C[C@H](Nc1cc(-c2c(N)nn3cccnc23)nc(N2CCC(N(C)C)C2)n1)c1ccc(F)cc1 (stereo partly shown) [Compound 190] | UniProtKB O60674 | > 8.00
CCC[C@H](Nc1cc(-c2c(N)nn3cccnc23)nc(N2CCOCC2)n1)c1ccc(F)cc1F [Compound 107] | UniProtKB O60674 | 7.00 to 8.00

====

# collection of Ki values tested on JAK3 (Homo sapiens)
# Sequence (P52333 whole entry): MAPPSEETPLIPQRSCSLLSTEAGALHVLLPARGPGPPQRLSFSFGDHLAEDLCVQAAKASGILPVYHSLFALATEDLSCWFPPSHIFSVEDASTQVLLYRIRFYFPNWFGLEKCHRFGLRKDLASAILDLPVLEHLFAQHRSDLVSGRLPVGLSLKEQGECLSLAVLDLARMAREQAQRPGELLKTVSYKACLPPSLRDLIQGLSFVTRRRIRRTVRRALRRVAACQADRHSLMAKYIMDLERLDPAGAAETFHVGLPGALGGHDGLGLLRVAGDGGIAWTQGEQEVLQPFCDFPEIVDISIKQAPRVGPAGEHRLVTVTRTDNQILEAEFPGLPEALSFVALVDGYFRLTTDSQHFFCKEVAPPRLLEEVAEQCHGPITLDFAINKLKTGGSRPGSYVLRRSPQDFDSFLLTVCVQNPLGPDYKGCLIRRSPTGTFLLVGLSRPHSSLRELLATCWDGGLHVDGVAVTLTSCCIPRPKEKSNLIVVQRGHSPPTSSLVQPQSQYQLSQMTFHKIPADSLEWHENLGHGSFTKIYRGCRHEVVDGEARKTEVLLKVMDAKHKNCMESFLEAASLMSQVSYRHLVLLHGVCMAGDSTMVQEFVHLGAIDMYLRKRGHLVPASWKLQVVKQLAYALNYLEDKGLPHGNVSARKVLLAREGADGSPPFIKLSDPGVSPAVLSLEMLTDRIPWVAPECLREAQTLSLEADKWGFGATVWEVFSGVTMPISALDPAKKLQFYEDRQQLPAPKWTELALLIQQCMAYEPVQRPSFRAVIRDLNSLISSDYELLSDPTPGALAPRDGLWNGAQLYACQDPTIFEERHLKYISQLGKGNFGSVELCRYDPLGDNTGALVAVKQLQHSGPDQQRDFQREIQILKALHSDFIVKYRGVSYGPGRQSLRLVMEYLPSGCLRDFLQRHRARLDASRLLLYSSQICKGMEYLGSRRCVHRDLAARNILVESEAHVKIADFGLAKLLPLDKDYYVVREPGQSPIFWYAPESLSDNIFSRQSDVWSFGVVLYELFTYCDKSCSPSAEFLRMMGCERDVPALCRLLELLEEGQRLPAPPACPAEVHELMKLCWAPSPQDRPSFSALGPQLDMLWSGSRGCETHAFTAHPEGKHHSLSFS
assay.readout: Ki

molecule | reading
C[C@H](Nc1cc(-c2c(N)nn3cccnc23)nc(OCC2COC(C)(C)O2)n1)c1ccc(F)cc1 (stereo partly shown) [Compound 168] | 10 to 100 nM
Nc1nn2cccnc2c1-c1cc(O[C@H](c2ccccc2)C(F)(F)F)ncn1 [Compound 69] | 100 to 500 nM
C[C@H](Nc1cc(-c2cnn3cccnc23)nc(OCC2CC2)n1)c1ccc(F)cc1F [Compound 205] | 100 to 500 nM
COC(C)(C)CCOc1nc(N[C@@H](C)c2ccc(F)cc2F)cc(-c2c(N)nn3cccnc23)n1 [Compound 138] | 10 to 100 nM
OCC[C@H](Nc1cc(-c2cnn3cccnc23)ncn1)c1ccccc1 [Compound 115] | 10 to 100 nM
COCCOc1nc(N[C@@H](C)c2ccc(F)cc2F)cc(-c2c(N)nn3cccnc23)n1 [Compound 126] | < 10 nM
C[C@H](Nc1cc(-c2c(N)nn3cccnc23)nc(O)n1)c1ccc(F)cc1 [Compound 161] | 10 to 100 nM
C[C@H](Nc1cc(-c2cnn3cccnc23)ncn1)c1ccc(F)c(F)c1 [Compound 118] | 10 to 100 nM
C[C@H](Nc1cc(-c2c(N)nn3cccnc23)nc(N2CCC(N(C)C)C2)n1)c1ccc(F)cc1 (stereo partly shown) [Compound 190] | 10 to 100 nM
Cc1ccn2nc(N)c(-c3cc(N[C@@H](C)c4ccc(F)cc4)ncn3)c2n1 [Compound 95] | 10 to 100 nM
C[C@H](Nc1cc(-c2c(N)nn3cccnc23)nc(OCCCN(C)C)n1)c1ccc(F)cc1 [Compound 154] | 10 to 100 nM
C[C@H](Nc1cc(-c2c(N)nn3cccnc23)nc(OCC2CCOC2)n1)c1ccc(F)cc1 (stereo partly shown) [Compound 164] | 10 to 100 nM
CN(Cc1cccnc1)c1cc(-c2c(N)nn3cccnc23)ncn1 [Compound 33] | 10 to 100 nM
C[C@H](Nc1cc(-c2c(N)nn3cccnc23)nc(OCC2CC2)n1)c1ccc(F)cc1 [Compound 166] | 10 to 100 nM
C[C@H](Nc1cc(-c2cnn3cccnc23)ncn1)c1ccc(F)cc1F [Compound 117] | 10 to 100 nM
C[C@H](Nc1cc(-c2cnn3cccnc23)nc(N)n1)c1ccc(F)cc1F [Compound 147] | 10 to 100 nM
